ASSAYED TARGET: T1, recombinant water-soluble HLA-DR1 (DRA/DRB1*0101) (human)
T1 chain 1: not shown
T1 chain 2: not shown
QUANTITY: affinity determined by competition with biotinylated competitor (µM)
Report as a plain number; the unit µM is understood.

Solved entries (count: 3):
[
  {
    "BINDER": "AKEYAAAAAAKAAAA (modifications not checked) [peptide SEQ ID NO: 7]",
    "REPORTED": 19
  },
  {
    "BINDER": "AAKYAEAAAAKAAAA (modifications not checked) [peptide SEQ ID NO: 15]",
    "REPORTED": 42
  },
  {
    "BINDER": "AAEYAAAAAAKAAAA (modifications not checked) [peptide SEQ ID NO: 12]",
    "REPORTED": 47
  }
]

Give the measured affinity determined by competition with biotinylated competitor of EAKYAAAAAAKAAAA (modifications not checked) [peptide SEQ ID NO: 18] .
33
